- System: two-spotted spider mite (Tetranychus urticae)
- Assay overview: Tetranychus test (resistant), degree of destruction of spider mites on bean plants
- Type: in vivo
- Recorded conditions: 48 h, active compound concentration 0.001%, after 2 days
Measured parameter: mortality at 0.001 %
Kindly report the value followed by its unit.

Ask | Data request, read-out mortality at 0.001 %, for CSc1ccc(Nc2c([N+](=O)[O-])cc([N+](=O)[O-])cc2C(F)(F)F)c(C(F)(F)F)c1
Reply | 98%

Ask | Data request, read-out mortality at 0.001 %, for O=[N+]([O-])c1cc([N+](=O)[O-])c(Nc2ccc3c(c2)C(F)(F)OC(F)(F)O3)c(C(F)(F)F)c1
Reply | 100%

Ask | Data request, read-out mortality at 0.001 %, for O=[N+]([O-])c1cc([N+](=O)[O-])c(Nc2ccc(OC(F)(F)F)cc2)c(C(F)(F)F)c1
Reply | 100%

Ask | Data request, read-out mortality at 0.001 %, for O=[N+]([O-])c1cc([N+](=O)[O-])c(Nc2cccc(OC(F)(F)F)c2)c(C(F)(F)F)c1
Reply | 100%
